measured_target: HIV Env of isolate C3347.c11 (clade AE) (HIV)
assay_protocol: cell-based or functional assay
readout: IC80 (µg/ml) with constrains (µg/mL)

[[record]]
binder = "ePGDM9 (antibody, V domains shown) VH: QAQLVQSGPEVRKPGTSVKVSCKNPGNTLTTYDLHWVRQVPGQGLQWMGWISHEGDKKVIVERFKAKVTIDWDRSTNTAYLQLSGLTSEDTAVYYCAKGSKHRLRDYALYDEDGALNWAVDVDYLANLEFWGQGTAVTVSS VL: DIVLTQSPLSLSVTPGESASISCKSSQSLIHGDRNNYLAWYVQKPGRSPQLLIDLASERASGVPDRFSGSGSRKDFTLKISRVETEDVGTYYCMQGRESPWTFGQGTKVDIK"
readout = "IC80 (µg/ml) with constrains"
endpoint_result = 0.011

